# credit: ChEMBL document CHEMBL4665653

assay: Unbound brain-to-plasma concentration ratio in Sprague-Dawley rat at 0.1 to 0.2 mg/kg, iv measured after 0.25 hrs; type: ADME, organism-based; settings: dose 0.1-0.2 mg/kg, read-out: K(p,uu,brain)
In this section we review reported Kp uu at 0.25 h values for a set of compounds.
Format: numeric value only, no unit, no commentary.

// solved cases for Kp uu at 0.25 h follow
Value lookup for Kp uu at 0.25 h; key = `Cc1nnc2sc(C(=O)NC3CN(c4ncc(C(F)(F)F)cn4)C3)c(N)c2c1C`
0.18

Please report the recorded Kp uu at 0.25 h for `Cc1c(Cl)nnc2sc(C(=O)NC3CN(c4ncc(C(F)(F)F)cn4)C3)c(N)c12` .
0.17

Give its Kp uu at 0.25 h value. Item: `Cc1c(C(F)F)nnc2sc(C(=O)NC3CN(c4ncc(C(F)(F)F)cn4)C3)c(N)c12`
0.88

---
Which measured Kp uu at 0.25 h value corresponds to `Cc1c(Cl)nnc2sc(C(=O)NC3CN(c4cc(C(F)(F)F)ncc4Cl)C3)c(N)c12` ?
0.16

Given `COc1nnc2sc(C(=O)NC3CN(c4ncc(C(F)(F)F)cn4)C3)c(N)c2c1C` , state its recorded Kp uu at 0.25 h.
0.73

Need Kp uu at 0.25 h, item `COc1cc(N2CC(NC(=O)c3sc4nnc(Cl)c(C)c4c3N)C2)c(Cl)cn1`
0.42

Param item = `Cc1c(CF)nnc2sc(C(=O)NC3CN(c4ncc(C(F)(F)F)cn4)C3)c(N)c12` ; retrieve measured Kp uu at 0.25 h.
0.15

---

biological target: Muscarinic acetylcholine receptor M1 (Rattus norvegicus); experiment: Positive allosteric modulation of rat M1 receptor
Sequence (P08482 whole entry): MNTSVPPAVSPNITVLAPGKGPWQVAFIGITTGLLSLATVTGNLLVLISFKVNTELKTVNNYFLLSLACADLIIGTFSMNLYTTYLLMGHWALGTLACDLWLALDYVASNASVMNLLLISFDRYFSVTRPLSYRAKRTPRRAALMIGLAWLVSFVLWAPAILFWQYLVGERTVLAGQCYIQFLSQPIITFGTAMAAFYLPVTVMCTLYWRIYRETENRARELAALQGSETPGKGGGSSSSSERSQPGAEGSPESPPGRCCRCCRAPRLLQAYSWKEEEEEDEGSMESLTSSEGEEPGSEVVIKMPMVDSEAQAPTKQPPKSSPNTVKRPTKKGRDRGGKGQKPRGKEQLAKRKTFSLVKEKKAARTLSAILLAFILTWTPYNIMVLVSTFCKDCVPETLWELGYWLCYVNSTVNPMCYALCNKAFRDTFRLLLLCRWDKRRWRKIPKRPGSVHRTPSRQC
PROPERTY_NAME: EC50

Could you share what EC50 was measured for `COc1nnc2sc(C(=O)NC3CN(c4ncc(C(F)(F)F)cn4)C3)c(N)c2c1C` , tested on Muscarinic acetylcholine receptor M1 (Rattus norvegicus)?
> 30 µM

---

CLH overview
test: Hepatic clearance in human; assay type: ADME
Express it in mL/min/kg; write the number only.

Which CLH value is on record for `Cc1c(CF)nnc2sc(C(=O)NC3CN(c4ncc(C(F)(F)F)cn4)C3)c(N)c12` ?
10.8

Which CLH value is on record for `Cc1nnc2sc(C(=O)NC3CN(c4ncc(C(F)(F)F)cn4)C3)c(N)c2c1C` ?
4.39

Next compound, CLH to be filled in.
Could you tell me which CLH is on file for `COc1nnc2sc(C(=O)NC3CN(c4ncc(C(F)(F)F)cn4)C3)c(N)c2c1C` ?
2.52

---

molecular target: Muscarinic acetylcholine receptor M2 (Homo sapiens); assay: Positive allosteric modulation of human M2 receptor/Gqi5 in presence of EC20 acetylcholine by calcium mobilization assay
Sequence (P08172 whole entry): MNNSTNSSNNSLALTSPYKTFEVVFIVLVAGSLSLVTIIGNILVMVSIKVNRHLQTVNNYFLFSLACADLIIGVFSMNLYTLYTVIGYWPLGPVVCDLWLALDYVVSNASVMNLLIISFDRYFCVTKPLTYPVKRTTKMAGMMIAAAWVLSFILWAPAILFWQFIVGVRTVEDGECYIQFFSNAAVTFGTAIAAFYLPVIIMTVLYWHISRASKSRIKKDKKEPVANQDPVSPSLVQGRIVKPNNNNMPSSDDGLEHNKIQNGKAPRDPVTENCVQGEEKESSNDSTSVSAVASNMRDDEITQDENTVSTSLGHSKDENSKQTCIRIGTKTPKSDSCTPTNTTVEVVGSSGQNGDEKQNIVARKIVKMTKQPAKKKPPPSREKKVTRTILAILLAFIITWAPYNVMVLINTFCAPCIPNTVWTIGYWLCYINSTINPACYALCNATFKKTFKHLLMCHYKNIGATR
pEC50: −log10 of the molar value.
Listed here are compounds together with their documented pEC50.

Reference set, count: 10
Sample `Cc1c(Cl)nnc2sc(C(=O)NC3CN(c4cc(Cl)ncc4Cl)C3)c(N)c12` — what was its pEC50?
< 4.52

Can you share its pEC50? I mean this compound: `Cc1nnc2sc(C(=O)NC3CN(c4ncc(C(F)(F)F)cn4)C3)c(N)c2c1C`
5.94

// lookup pEC50 for `Cc1nc(Cl)c(C)c(N2CC(NC(=O)c3sc4nnc(Cl)c(C)c4c3N)C2)n1`
< 4.52

What value of measured pEC50 is listed for `Cc1c(Cl)nnc2sc(C(=O)NC3CN(c4ncncc4C#N)C3)c(N)c12` ?
< 4.52

Report pEC50 for `Cc1c(O)nnc2sc(C(=O)NC3CN(c4ncc(C(F)(F)F)cn4)C3)c(N)c12` please.
< 4.52

For the compound shown here, `COc1nnc2sc(C(=O)NC3CN(c4ncc(C(F)(F)F)cn4)C3)c(N)c2c1C` , give the reported pEC50.
< 4.52

For the compound `Cc1c(Cl)nnc2sc(C(=O)NC3CN(c4ccc(C5CC5)nn4)C3)c(N)c12` , what pEC50 is on record?
< 5.30

Quick check: pEC50 of `Cc1c(CO)nnc2sc(C(=O)NC3CN(c4ncc(C(F)(F)F)cn4)C3)c(N)c12` ?
< 4.52

Consider the compound shown here: `COc1cc(N2CC(NC(=O)c3sc4nnc(Cl)c(C)c4c3N)C2)c(Cl)cn1` What is its recorded pEC50?
< 4.52

# query: pEC50 of entry `Cc1c(Cl)nnc2sc(C(=O)NC3CN(c4cccnc4)C3)c(N)c12`
5.96

New cases:
Which pEC50 value belongs to `Cc1cc(C2CC2)ncc1N1CC(NC(=O)c2sc3nnc(Cl)c(C)c3c2N)C1` ?
6.06

# pEC50 lookup, item `Cc1c(C(F)F)nnc2sc(C(=O)NC3CN(c4ncc(C(F)(F)F)cn4)C3)c(N)c12`
< 4.52

Look at this compound and give its reported pEC50. `Cc1c(C(C)C)nnc2sc(C(=O)NC3CN(c4ncc(C(F)(F)F)cn4)C3)c(N)c12`
< 4.52

Find the recorded pEC50 belonging to `Cc1c(CF)nnc2sc(C(=O)NC3CN(c4ncc(C(F)(F)F)cn4)C3)c(N)c12` and report it.
< 4.52

Return reported pEC50; argument: `CCc1nnc2sc(C(=O)NC3CN(c4ncc(C(F)(F)F)cn4)C3)c(N)c2c1C`
< 4.52

I have this compound here, `Cc1c(Cl)nnc2sc(C(=O)NC3CN(c4nnc(CC(C)C)o4)C3)c(N)c12` , and I need its recorded pEC50.
< 5.00

Fill in: pEC50 of `Cc1c(Cl)nnc2sc(C(=O)NC3CN(c4cc(C(F)(F)F)ncc4Cl)C3)c(N)c12` is ___
< 5.00

Find the recorded pEC50 belonging to `Cc1c(CN(C)C)nnc2sc(C(=O)NC3CN(c4ncc(C(F)(F)F)cn4)C3)c(N)c12` and report it.
< 4.52

Quick check: pEC50 of `COCCOc1nnc2sc(C(=O)NC3CN(c4ncc(C(F)(F)F)cn4)C3)c(N)c2c1C` ?
< 4.52

What does the data say about its pEC50? Entry: `Cc1c(Cl)nnc2sc(C(=O)NC3CN(c4cnc(Cl)cn4)C3)c(N)c12`
6.40

Requested read-out: pEC50. Entry: `Cc1c(Cl)nnc2sc(C(=O)NC3CN(c4ncc(C(F)(F)F)cn4)C3)c(N)c12`
< 4.52

Given `Cc1c(Cl)nnc2sc(C(=O)NC3CN(c4ccnc(F)c4Cl)C3)c(N)c12` , state its recorded pEC50.
< 4.52

---

test: Half life in cynomolgus monkey; format: ADME, Macaca fascicularis; conditions: in vivo
PROPERTY_NAME: half-life (h)
Field format: number, assumed h, no unit text.

Endpoint output: half-life of `COc1nnc2sc(C(=O)NC3CN(c4ncc(C(F)(F)F)cn4)C3)c(N)c2c1C` . Value?
1.3

---

assay: Solubility of the compound in FaSSIF; format: physicochemical
PROPERTY_NAME: solubility (µM)
Kindly provide the numeric value in µM only, without the unit symbol.

# lookup: solubility of `COc1nnc2sc(C(=O)NC3CN(c4ncc(C(F)(F)F)cn4)C3)c(N)c2c1C`
18

---

molecular target: hERG (KCNH2) (Homo sapiens); test: Displacement of [3H]-Astemizole from human recombinant full length ERG channel expressed in HEK293 cells assessed as residual binding level for radioligand at 10 uM incubated for 60 mins by scintillation counting analysis relative to control; assay type: cell-based; conditions: probe [3H]-Astemizole, read-out: INH
Sequence (Q12809 whole entry): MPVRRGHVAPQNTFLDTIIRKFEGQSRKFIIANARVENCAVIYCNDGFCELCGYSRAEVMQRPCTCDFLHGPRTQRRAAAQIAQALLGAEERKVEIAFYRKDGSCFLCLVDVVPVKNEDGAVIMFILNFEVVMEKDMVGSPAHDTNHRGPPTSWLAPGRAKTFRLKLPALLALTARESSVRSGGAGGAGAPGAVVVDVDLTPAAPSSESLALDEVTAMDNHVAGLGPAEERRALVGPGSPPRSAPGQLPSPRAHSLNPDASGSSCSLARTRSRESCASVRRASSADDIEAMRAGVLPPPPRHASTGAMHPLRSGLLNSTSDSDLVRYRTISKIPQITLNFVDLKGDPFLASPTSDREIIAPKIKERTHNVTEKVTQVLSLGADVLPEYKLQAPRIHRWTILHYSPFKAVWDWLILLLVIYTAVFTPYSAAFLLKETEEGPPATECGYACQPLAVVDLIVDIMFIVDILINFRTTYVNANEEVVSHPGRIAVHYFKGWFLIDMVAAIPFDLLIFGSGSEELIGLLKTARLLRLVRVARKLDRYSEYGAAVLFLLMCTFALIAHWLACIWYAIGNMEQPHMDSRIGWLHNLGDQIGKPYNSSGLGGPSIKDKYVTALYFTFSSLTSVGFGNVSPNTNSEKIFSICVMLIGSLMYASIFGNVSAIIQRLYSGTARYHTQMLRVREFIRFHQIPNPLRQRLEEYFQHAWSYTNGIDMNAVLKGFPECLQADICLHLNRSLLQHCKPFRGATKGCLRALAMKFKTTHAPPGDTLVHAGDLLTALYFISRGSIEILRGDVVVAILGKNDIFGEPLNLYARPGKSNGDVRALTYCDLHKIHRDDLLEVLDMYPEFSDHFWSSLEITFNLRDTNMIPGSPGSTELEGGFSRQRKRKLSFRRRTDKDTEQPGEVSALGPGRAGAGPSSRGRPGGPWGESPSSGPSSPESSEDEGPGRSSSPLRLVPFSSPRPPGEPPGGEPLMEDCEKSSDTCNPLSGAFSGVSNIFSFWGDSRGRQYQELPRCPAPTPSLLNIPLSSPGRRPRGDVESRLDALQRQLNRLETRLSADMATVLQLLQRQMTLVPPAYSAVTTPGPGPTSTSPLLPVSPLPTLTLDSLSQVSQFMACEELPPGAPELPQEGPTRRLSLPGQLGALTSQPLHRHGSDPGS
PROPERTY_NAME: activity at 1 h, 10 µM

Short answer please: activity at 1 h, 10 µM, hERG (KCNH2) (Homo sapiens), entry `COc1nnc2sc(C(=O)NC3CN(c4ncc(C(F)(F)F)cn4)C3)c(N)c2c1C`
< 25%

---

biological target: Muscarinic acetylcholine receptor M3 (Homo sapiens, UniProt P20309); assay: Positive allosteric modulation of human M3 receptor
Sequence (P20309 whole entry, looked up): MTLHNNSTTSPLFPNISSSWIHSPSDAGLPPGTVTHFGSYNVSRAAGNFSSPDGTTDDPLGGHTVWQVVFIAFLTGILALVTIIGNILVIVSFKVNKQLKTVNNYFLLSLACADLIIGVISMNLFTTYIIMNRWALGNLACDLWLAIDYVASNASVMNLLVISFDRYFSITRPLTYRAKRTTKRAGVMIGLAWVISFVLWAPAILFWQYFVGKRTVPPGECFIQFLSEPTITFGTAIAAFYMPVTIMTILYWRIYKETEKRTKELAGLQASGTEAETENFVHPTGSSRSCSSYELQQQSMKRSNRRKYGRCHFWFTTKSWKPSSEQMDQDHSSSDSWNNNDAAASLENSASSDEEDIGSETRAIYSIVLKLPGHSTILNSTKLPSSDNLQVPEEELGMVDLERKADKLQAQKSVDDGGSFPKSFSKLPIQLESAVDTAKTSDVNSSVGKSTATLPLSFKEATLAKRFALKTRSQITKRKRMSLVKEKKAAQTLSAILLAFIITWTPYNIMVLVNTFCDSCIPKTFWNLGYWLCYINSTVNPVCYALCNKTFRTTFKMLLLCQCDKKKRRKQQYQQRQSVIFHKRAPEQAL
Active and inactive are the calls of the source. The rule behind the calls is not given here.
PROPERTY_NAME: Activity

Which Activity reading was recorded for the compound `Cc1c(C(C)C)nnc2sc(C(=O)NC3CN(c4ncc(C(F)(F)F)cn4)C3)c(N)c12` ?
inactive

# query: Activity of entry `Cc1c(Cl)nnc2sc(C(=O)NC3CN(c4ncc(C(F)(F)F)cn4)C3)c(N)c12`
inactive

Give its Activity value. Item: `Cc1c(Cl)nnc2sc(C(=O)NC3CN(c4cc(C(F)(F)F)ncc4Cl)C3)c(N)c12`
inactive

Which Activity value belongs to `Cc1nnc2sc(C(=O)NC3CN(c4ncc(C(F)(F)F)cn4)C3)c(N)c2c1C` ?
inactive

# context switch: different compound, same Activity
Given the entry `Cc1c(Cl)nnc2sc(C(=O)NC3CN(c4cc(Cl)ncc4Cl)C3)c(N)c12` , report its measured Activity.
inactive

---

test: Half life in rat; type: ADME; details: in vivo
PROPERTY_NAME: half-life (h)
Number only, in h; omit the unit.

Could you tell me which half-life is on file for `COc1nnc2sc(C(=O)NC3CN(c4ncc(C(F)(F)F)cn4)C3)c(N)c2c1C` ?
2.8
